assay: Apparent permeability across basolateral to apical side in human Caco2 cells at 10 uM after 15 to 60 mins; type: ADME, cell-based; settings: Caco-2
measuredProperty: Papp B→A at 10 µM (×10⁻⁶ cm/s)

Cc1ccc(NC(=O)c2cc(-n3cc4ccc(C(=O)O)cc4n3)ccc2N2CCCCC2)cc1	31

(P) Cc1ccc(NC(=O)c2cc(N3C(=O)c4ccc(C(=O)O)cc4C3=O)ccc2N2CCCCC2)cc1
(Q) Cc1ccc(NC(=O)c2cc(-c3cc4cc(C(=O)O)ccc4o3)ccc2N2CCCCC2)cc1
Sorting ascending by Papp B→A at 10 µM, which comes first: P or Q ? Respond using the label that marks the chosen record.
Q
(Q: 1.8 ×10⁻⁶ cm/s, P: 31 ×10⁻⁶ cm/s)
